Test: chemical genetic growth profiling, strain panel (AID 1159580);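 note: tested at 20 µM; growth read once vehicle control cultures reached saturation at 30 °C; 1 = growth at the plate median or of vehicle wells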
Conditions: S. cerevisiae deletion strains, growth OD, locus YDR101C, strain arx1, stronger effect = lower value
Out of some 5,500 compounds screened, about 2,000 (36%) were called active. Inconclusive results (about 18%) are left out. Some of the results follow.
Documented normalized growth across a set of compounds
Keep it simple and answer with nothing but the number.

Clc1ccc(C(c2ccccc2Cl)C(Cl)Cl)cc1 (centres undefined)
0.987
COC1C=CC23c4cc5c(cc4CN(CC2O)[C@@H]3C1)OCO5 (some centres undefined)
0.962
CC(=O)O[C@H]1C[C@@H](OC(C)=O)C(C)(C)C2C[C@@H](O)[C@]3(C)C(CC[C@@]4(C)[C@H](c5ccoc5)OC(=O)[C@H]5O[C@]543)[C@]21C (some centres undefined)
0.954
Cc1nnc(NS(=O)(=O)c2ccc(N)cc2)s1
0.995
COc1cc(C)c2c(=O)cc(-c3ccccc3)oc2c1
0.989

Kindly consider the entry below.
Input O=c1[nH]c(=O)n(C2C[C@H](O)[C@@H](CO)O2)cc1C(F)(F)F (some centres undefined) . Output normalized growth: 0.981

---

Experiment: chemical genetic growth profiling, strain panel (AID 1159580)
Conditions: S. cerevisiae deletion strains, growth OD, locus YHR027C, strain rpn1, stronger effect = lower value
Among all 5,500 compounds or so, about 2,000 (36%) were called active. About 18% were inconclusive and are not listed. The list shows a part of the results.
Reported property: normalized growth
Keep it simple and answer with nothing but the number.

Answered examples (3):
CC(=O)O[C@H]1C[C@@H](OC(C)=O)C(C)(C)C2C[C@@H](O)[C@]3(C)C(CC[C@@]4(C)[C@H](c5ccoc5)OC(=O)[C@H]5O[C@]543)[C@]21C (some centres undefined)
0.986
COP(=S)(OC)Oc1ccc([N+](=O)[O-])cc1
0.987
O=c1cccc2n1CC1CC2CN2CCCC[C@@H]12 (some centres undefined)
0.982

Input CC1(C)C(=O)[C@@H]2O[C@@H]2[C@@]2(C)C1C[C@@H](O)[C@]1(C)C2CC[C@@]2(C)[C@H](c3ccoc3)OC(=O)C3OC321 (some centres undefined) . Output normalized growth: 0.997

---

Assay: chemical genetic growth profiling, strain panel (AID 1159580)
Details: S. cerevisiae deletion strains, growth OD, locus YGL173C, strain kem1
The campaign covered roughly 5,500 compounds. About 2,000 (36%) were called active. About 18% were inconclusive and are not listed. No stated cut-off is given here; in the data, active means normalized growth mostly below about 0.91 (no sharp cut-off); inconclusive means no clear call, values can overlap the other calls; inactive means mostly above about 0.92. The list shows a part of the results.
// allowed return values: T for active, F for inactive

Observe how each entry below is paired with its result.
COc1ccc2oc3ccccc3c(=O)c2c1
T
NCC[C@@H](O)C(=O)N[C@@H]1C[C@H](N)[C@@H](O[C@H]2O[C@H](CN)[C@@H](O)[C@H](O)[C@H]2O)[C@H](O)[C@H]1O[C@H]1O[C@H](CO)[C@@H](O)[C@H](N)C1O (some centres undefined)
F
CC1CCC(NC(=O)N(CCCl)N=O)CC1 (centres undefined)
T
CCCCC(=O)O[C@]1(C(=O)CO)CCC2C3CCC4=CC(=O)CC[C@]4(C)C3[C@@H](O)C[C@@]21C (some centres undefined)
F
CC(C)=CC1C(C(=O)OCc2cccc(Oc3ccccc3)c2)C1(C)C (centres undefined)
F
Cc1cccc(C)c1NC(=O)C1CCCCN1C (centres undefined)
F

Problem: Test call, this molecule: `FC(F)(F)c1cccc(N2CCNCC2)c1`
Result: F

Problem: Test call, this molecule: CC(=O)C1CC[C@H]2C3CC[C@H]4C[C@H](O)CC[C@]4(C)C3CC[C@]12C (some centres undefined)
Result: F

Problem: Test call, this molecule: `Oc1c(Cl)cc(Cl)c(Cl)c1Cc1c(O)c(Cl)cc(Cl)c1Cl`
Result: T

Problem: Test call, this molecule: C=CCS(=O)C[C@H](N)C(=O)O (some centres undefined)
Result: F

Problem: Test call, this molecule: C[C@@H]1CC[C@H]2C(C)(C)C3CC12CC[C@@]3(C)O (some centres undefined)
Result: T

Problem: Test call, this molecule: O=c1[nH]c(=O)n(C2C[C@H](O)[C@@H](CO)O2)cc1C(F)(F)F (some centres undefined)
Result: F

Problem: Test call, this molecule: NC(=O)NC1NC(=O)NC1=O (centres undefined)
Result: F

Problem: Test call, this molecule: CC(=O)OCC(=O)[C@@]1(O)CCC2C3CCC4=CC(=O)C=CC4(C)C3[C@@H](O)C[C@@]21C (some centres undefined)
Result: F

Problem: Test call, this molecule: `CC(=O)N[C@@H](CCC(=O)O)C(=O)O`
Result: F

Problem: Test call, this molecule: CC12CCCCC1(Br)[N+](=O)N2[O-] (centres undefined)
Result: F

Problem: Test call, this molecule: CC1(C)N([O-])[N+](=O)C1(C)Br (centres undefined)
Result: F

---

Documented normalized growth across a set of compounds
Experiment: chemical genetic growth profiling, strain panel (AID 1159580);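 note: tested at 20 µM; growth read once vehicle control cultures reached saturation at 30 °C; 1 = growth at the plate median or of vehicle wells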
Conditions: S. cerevisiae deletion strains, growth OD, locus YNL307C, strain MCK1, stronger effect = lower value
The whole screen tested about 5,500 compounds, of which about 2,000 (36%) were called active. About 18% were inconclusive and are not listed. This is one part of the list.
Keep it simple and answer with nothing but the number.

Input CC1(C)C(=O)[C@@H]2O[C@@H]2[C@@]2(C)C1C[C@@H](O)[C@]1(C)C2CC[C@@]2(C)[C@H](c3ccoc3)OC(=O)C3OC321 (some centres not stated) . Output normalized growth: 0.967

Input NCC[C@@H](O)C(=O)N[C@@H]1C[C@H](N)[C@@H](O[C@H]2O[C@H](CN)[C@@H](O)[C@H](O)[C@H]2O)[C@H](O)[C@H]1O[C@H]1O[C@H](CO)[C@@H](O)[C@H](N)C1O (some centres not stated) . Output normalized growth: 1.02

Input O=C(O)CCC1NCC2CC1CN1CCCCC21 (configuration not stated) . Output normalized growth: 1

Input CC(=O)O[C@@H]1CC2C(C)(C)C(=O)C3OC3[C@]2(C)C2CC[C@@]3(C)[C@H](c4ccoc4)OC(=O)C4OC43[C@@]21C (some centres not stated) . Output normalized growth: 0.993

Input Clc1ccc(C(c2ccccc2Cl)C(Cl)Cl)cc1 (configuration not stated) . Output normalized growth: 0.912

Input C=NC(C(=O)NC1C(=O)N2C1SC(C)(C)C2C(=O)O)c1ccccc1 (configuration not stated) . Output normalized growth: 1.02

Input COc1ccc(CCC(=O)c2c(O)cc(O[C@@H]3O[C@H](CO)C(O)[C@H](O)C3O[C@@H]3O[C@@H](C)[C@H](O)[C@@H](O)[C@H]3O)cc2O)cc1O (some centres not stated) . Output normalized growth: 0.993

---

Assay: chemical genetic growth profiling, strain panel (AID 1159580);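 note: tested at 20 µM; growth read once vehicle control cultures reached saturation at 30 °C; 1 = growth at the plate median or of vehicle wells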
Conditions: S. cerevisiae deletion strains, growth OD, locus YBR021W, strain FUR4, stronger effect = lower value
The campaign covered roughly 5,500 compounds. About 2,000 (36%) were called active. Roughly 18% stayed inconclusive and do not appear here. The list shows a part of the results.
Documented normalized growth across a set of molecules
Keep it simple and answer with nothing but the number.

O=c1cccc2n1CC1CC2CN2CCCC[C@@H]12 (some centres not stated)
1.01

Input CC(=O)O[C@@H]1CC2C(C)(C)[C@H](O)CC[C@]2(C)C2CC[C@@]3(C)[C@H](c4ccoc4)OC(=O)[C@H]4O[C@]43[C@@]21C (some centres not stated) . Output normalized growth: 0.971

Input CC1(C)C(=O)[C@@H]2O[C@@H]2[C@@]2(C)C1C[C@@H](O)[C@]1(C)C2CC[C@@]2(C)[C@H](c3ccoc3)OC(=O)C3OC321 (some centres not stated) . Output normalized growth: 0.965

---

Test: chemical genetic growth profiling, strain panel (AID 1159580);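 note: tested at 20 µM; growth read once vehicle control cultures reached saturation at 30 °C; 1 = growth at the plate median or of vehicle wells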
Conditions: S. cerevisiae deletion strains, growth OD, locus YLR268W, strain sec22, stronger effect = lower value
Screen size: about 5,500 compounds; about 2,000 (36%) were called active. About 18% were inconclusive and are not listed. The list shows a part of the results.
Reported property: normalized growth
Keep it simple and answer with nothing but the number.

Answered examples (2):
CC(=O)O[C@@H]1CC2C(C)(C)C(=O)C3OC3[C@]2(C)C2CC[C@@]3(C)[C@H](c4ccoc4)OC(=O)C4OC43[C@@]21C (stereo partly specified)
1.01
CC(=O)O[C@@H]1CC2C(C)(C)[C@H](O)CC[C@]2(C)C2CC[C@@]3(C)[C@H](c4ccoc4)OC(=O)C4OC43[C@@]21C (stereo partly specified)
0.984

Input CC1(C)C(=O)[C@@H]2O[C@@H]2[C@@]2(C)C1C[C@@H](O)[C@]1(C)C2CC[C@@]2(C)[C@H](c3ccoc3)OC(=O)C3OC321 (stereo partly specified) . Output normalized growth: 0.987

Input CC(=O)OC1CC(OC(C)=O)C2(C)C(CC(OC(C)=O)C3(C)C2CCC2(C)C(c4ccoc4)OC(=O)C4OC423)C1(C)C (stereo unspecified) . Output normalized growth: 1

Input CC(=O)O[C@H]1C[C@@H](OC(C)=O)C(C)(C)C2C[C@@H](OC(C)=O)[C@]3(C)C(CC[C@@]4(C)[C@H](c5ccoc5)OC(=O)[C@H]5O[C@]543)[C@]21C (stereo partly specified) . Output normalized growth: 1

Input CC(=O)O[C@H]1C[C@@H](OC(C)=O)C(C)(C)C2C[C@@H](O)[C@]3(C)C(CC[C@@]4(C)[C@H](c5ccoc5)OC(=O)[C@H]5O[C@]543)[C@]21C (stereo partly specified) . Output normalized growth: 0.954
